- target.desc: Pancreatic elastase (Sus scrofa, UniProt P08419+P00772)
- assay.protocol: Compound was tested for its activity against porcine Pancreatic elastase
- Assay type: protein assay
measured.attribute: log10 of IC50 (log10 of the value in µM)
Please keep in mind that the values are log10 of IC50 expressed in µM.

Task: Entry `CC[C@@H]1C(=O)N(C(=O)NCc2ccncc2)[C@H]1Cc1ccccc1` , system Pancreatic elastase (Sus scrofa, UniProt P08419+P00772): what log10 of IC50 was measured?
Result: 0.23

Task: Entry `C[C@H]1C(=O)N(C(=O)NCc2ccncc2)[C@H]1Cc1ccccc1` , system Pancreatic elastase (Sus scrofa, UniProt P08419+P00772): what log10 of IC50 was measured?
Result: 1.28

Task: Entry `CC1(C)C(=O)N(C(=O)NCc2ccncc2)[C@H]1Cc1ccccc1` , system Pancreatic elastase (Sus scrofa, UniProt P08419+P00772): what log10 of IC50 was measured?
Result: 1.65

Task: Entry `C[C@@H]1C(=O)N(C(=O)NCc2ccncc2)[C@H]1Cc1ccccc1` , system Pancreatic elastase (Sus scrofa, UniProt P08419+P00772): what log10 of IC50 was measured?
Result: 1.72

Task: Entry `C=CC[C@@H]1C(=O)N(C(=O)NCc2ccncc2)[C@H]1Cc1ccccc1` , system Pancreatic elastase (Sus scrofa, UniProt P08419+P00772): what log10 of IC50 was measured?
Result: 0.67

Task: Entry `CO[C@@H]1C(=O)N(C(=O)NCc2ccncc2)[C@H]1Cc1ccccc1` , system Pancreatic elastase (Sus scrofa, UniProt P08419+P00772): what log10 of IC50 was measured?
Result: -0.52

----------
- assay.protocol: Time taken to reduce 50% of the concentration of compound in blood plasma
- Assay type: ADME, tissue-based
- conditions: human
measured.attribute: half-life (h)
Return type: number; implicit unit h.

>  <molecule>
CC1(C)C(=O)N(C(=O)NCc2ccncc2)[C@H]1Cc1ccccc1

>  <reported.measurement>
120

$$$$
>  <molecule>
O=C1C[C@H](Cc2ccccc2)N1C(=O)NC1CCCCC1

>  <reported.measurement>
24

$$$$
>  <molecule>
C=CC[C@@H]1C(=O)N(C(=O)NCc2ccncc2)[C@H]1Cc1ccccc1

>  <reported.measurement>
36

$$$$
>  <molecule>
O=C1C[C@H](Cc2ccccc2)N1C(=O)NCc1ccccc1

>  <reported.measurement>
36

$$$$
>  <molecule>
CN(Cc1ccccc1)C(=O)N1C(=O)C[C@@H]1Cc1ccccc1

>  <reported.measurement>
36

$$$$

Task: Item under review: `C[C@@H]1C(=O)N(C(=O)NCc2ccncc2)[C@H]1Cc1ccccc1` . Reported half-life?
Result: 36

Task: Item under review: `O=C1C[C@H](Cc2ccccc2)N1C(=O)N(Cc1ccccc1)C1CC1` . Reported half-life?
Result: 48

Task: Item under review: `O=C1C[C@H](Cc2ccccc2)N1C(=O)NCc1ccncc1` . Reported half-life?
Result: 24

Task: Item under review: `CC[C@@H]1C(=O)N(C(=O)NCc2ccncc2)[C@H]1Cc1ccccc1` . Reported half-life?
Result: 48

Task: Item under review: `O=C1C[C@H](Cc2ccccc2)N1C(=O)NCc1ccccn1` . Reported half-life?
Result: 36

Task: Item under review: CC1(C)C(=O)N(C(=O)NCc2ccncc2)C1Cc1ccccc1 (single isomer, unassigned) . Reported half-life?
Result: 120

Task: Item under review: `O=C1C[C@H](Cc2ccccc2)N1C(=O)NCc1cccnc1` . Reported half-life?
Result: 24
